Listed here: molecules with reported GI50 for A431 cells.

| molecule | assay-system | val |
| --- | --- | --- |
| C=CC(=O)N1CCC(Nc2cc3c(Nc4ccc(Oc5ccn(-c6cnc(C)c(OC)c6)n5)cc4F)ncnc3cc2OC)CC1 | A431 cells | 30 to 60 nM |
| C=CC(=O)N1CCC(Nc2cc3c(Nc4ccc(Oc5ccnc(N6CCC(O)C(F)(F)C6)c5)cc4F)ncnc3cc2OC)CC1 (stereo not shown) | A431 cells | 600 to 1000 nM |
| [2H]C([2H])([2H])Oc1cc2ncnc(Nc3ccc(Oc4nc(-c5ccc(C)nc5)cs4)cc3F)c2cc1NC1CCN(C(=O)C=C)CC1 | A431 cells | 100 to 300 nM |

Q: Output measured GI50 for this item: "C=CC(=O)N1CCC(Nc2cc3c(Nc4ccc(Oc5ccnc(N6CCC(C)(O)CC6)c5)cc4F)ncnc3cc2OC)CC1"
Ans: ≥ 1000 nM

Q: Output measured GI50 for this item: "C=CC(=O)N1CCC(Nc2cc3c(Nc4ccc(Oc5ccnc(N6CC(C)(C)C6)c5)cc4F)ncnc3cc2OC)CC1"
Ans: 100 to 300 nM

Q: Output measured GI50 for this item: "C=CC(=O)N1CCC(Nc2cc3c(Nc4ccc(Oc5ccnc(N6CC[C@H](O)C6)c5)cc4F)ncnc3cc2OC)CC1"
Ans: ≥ 1000 nM

Q: Output measured GI50 for this item: "C=CC(=O)N1CCC(Nc2cc3c(Nc4ccc(Oc5ccnc(N6CCC(C)(C)C6)c5)cc4F)ncnc3cc2OC)CC1"
Ans: 300 to 600 nM

====

- Test system: HCC827-YVMA cells (human ERBB2 exon20 insertion mutant A775_G776ins YVMA)
- method-summary: Cell growth inhibition (CellTiter-Glo, 3 days) in HCC827-YVMA
- Type: cell-based
- particulars: 72 h, 3 days after administration
result-type: GI50

| compound | assay-system | val |
| --- | --- | --- |
| C=CC(=O)N1CCC(Nc2cc3c(Nc4ccc(Oc5ncc(N6C[C@@H](C)O[C@@H](C)C6)cn5)cc4F)ncnc3cc2OC)CC1 [Example 110] | HCC827-YVMA cells (human ERBB2 exon20 insertion mutant A775_G776ins YVMA) | ≥ 1000 nM |

// next entry
Q: Output measured GI50 for this item: C=CC(=O)N1CCC(Nc2cc3c(Nc4ccc(Oc5ccc(N6C[C@@H](C)O[C@@H](C)C6)cn5)cc4F)ncnc3cc2OC)CC1 [Example 111]
Ans: 300 to 600 nM

====

- Tested on: HCC827-YVMA cells (human ERBB2 exon20 insertion mutant A775_G776ins YVMA)
- method-summary: Cell growth inhibition (CellTiter-Glo, 3 days) in HCC827-YVMA
- Assay type: cell-based
- particulars: 72 h, 3 days after administration
// reported GI50 per item

Example results:
| compound | GI50 |
| --- | --- |
| C=CC(=O)N1CCC(Nc2cc3c(Nc4ccc(Oc5ccnc(N6C[C@H](C)O[C@@H](C)C6)c5)cc4F)ncnc3cc2OC)CC1 [Example 105] | < 30 nM |
| C=CC(=O)N1CCC(Nc2cc3c(Nc4ccc(Oc5ccnc(N6CCO[C@@H](C)C6)c5)cc4F)ncnc3cc2OC)CC1 [Example 132] | < 30 nM |

Q: Output measured GI50 for this item: C=CC(=O)N1CCC(Nc2cc3c(Nc4ccc(Oc5nc(-c6ccnn6C)cs5)cc4F)ncnc3cc2OC)CC1 [Example 26]
Ans: 30 to 60 nM

Q: Output measured GI50 for this item: C=CC(=O)N1CCC(Nc2cc3c(Nc4ccc(Oc5ccn(-c6cnc7ccccc7c6)n5)cc4F)ncnc3cc2OC)CC1 [Example 91]
Ans: 100 to 300 nM

Q: Output measured GI50 for this item: C=CC(=O)N1CCC(Nc2cc3c(Nc4ccc(Oc5ccnc(N6CCN(C)CC6)c5)cc4F)ncnc3cc2OC)CC1 [Example 113]
Ans: < 30 nM

Q: Output measured GI50 for this item: C=CC(=O)N1CCC(Nc2cc3c(Nc4ccc(Oc5ccn(-c6nc(OC)nc(OC)n6)n5)cc4F)ncnc3cc2OC)CC1 [Compound 31]
Ans: < 30 nM

Q: Output measured GI50 for this item: C=CC(=O)N1CCC(Nc2cc3c(Nc4ccc(Oc5ccn(-c6cnc(C)c(C)c6)n5)cc4F)ncnc3cc2OC)CC1 [Example 36]
Ans: 60 to 100 nM

====

- Test system: A431 cells
// reported GI50 per item

| sample-smiles | val |
| --- | --- |
| C=CC(=O)N1CCC(Nc2cc3c(Nc4ccc(Oc5ccnc(-c6nc(C)sc6C)c5)cc4F)ncnc3cc2OC)CC1 | 300 to 600 nM |
| C=CC(=O)N1CCC(Nc2cc3c(Nc4ccc(Oc5ccn(-c6cnc(C)c(F)c6)n5)cc4F)ncnc3cc2OC)CC1 | 60 to 100 nM |
| C=CC(=O)N1CCC(Nc2cc3c(Nc4ccc(OCc5ccccn5)c(Cl)c4)ncnc3cc2OCCN2CCOCC2)CC1 | 100 to 300 nM |

// next entry
Q: // fetch GI50; item: "C=CC(=O)N1CCC(Nc2cc3c(Nc4ccc(Oc5ccn(-c6ccc(C)cn6)n5)cc4F)ncnc3cc2OC)CC1" ; system: A431 cells
Ans: 60 to 100 nM

====

- System: A431 cells
// reported GI50 per item

| molecule | assay-system | GI50 |
| --- | --- | --- |
| C=CC(=O)N1CCC(Nc2cc3c(Nc4ccc(Oc5ccnc(-c6ccncc6)c5)cc4F)ncnc3cc2OC)CC1 [Example 238] | A431 cells | ≥ 1 µM |

Q: // fetch GI50; item: C=CC(=O)N1CCC(Nc2cc3c(Nc4ccc(Oc5ccnc(N6CCN(C)CC6)c5)cc4)ncnc3cc2OC)CC1 [Example 231] ; system: A431 cells
Ans: ≥ 1 µM

Q: // fetch GI50; item: C=CC(=O)N1CCC(Nc2cc3c(Nc4ccc(Oc5ccnc(N6CC(C)(OC)C6)c5)cc4F)ncnc3cc2OC)CC1 [Example 207] ; system: A431 cells
Ans: 0.1 to 0.3 µM

Q: // fetch GI50; item: C=CC(=O)N1CCC(Nc2cc3c(Nc4ccc(Oc5ccnc(N6CCN(C)CC6)c5)c(Cl)c4)ncnc3cc2OC)CC1 [Example 228] ; system: A431 cells
Ans: ≥ 1 µM

====

- System: HCC827-YVMA cells (human ERBB2 exon20 insertion mutant A775_G776ins YVMA)
- method-summary: Cell growth inhibition (CellTiter-Glo, 3 days) in HCC827-YVMA
- Format: cell-based
- particulars: 72 h, 3 days after administration
result-type: GI50

Example results:
| sample-smiles | assay-system | result-type | val |
| --- | --- | --- | --- |
| C=CC(=O)N1CCC(Nc2cc3c(Nc4ccc(Oc5ccnc(N6CC[C@@H](O)C6)c5)cc4F)ncnc3cc2OC)CC1 | HCC827-YVMA cells (human ERBB2 exon20 insertion mutant A775_G776ins YVMA) | GI50 | 100 to 300 nM |
| C=CC(=O)N1CC2(CC(Oc3cc4c(Nc5ccc(Oc6ccn(-c7cnc(OC)nc7)n6)cc5F)ncnc4cc3OC)C2)C1 | HCC827-YVMA cells (human ERBB2 exon20 insertion mutant A775_G776ins YVMA) | GI50 | ≥ 1000 nM |
| C=CC(=O)N1CCC(Nc2cc3c(Nc4ccc(Oc5ccnc(N6C[C@H](F)[C@@H](F)C6)c5)cc4F)ncnc3cc2OC)CC1 | HCC827-YVMA cells (human ERBB2 exon20 insertion mutant A775_G776ins YVMA) | GI50 | < 30 nM |

Q: Output measured GI50 for this item: "C=CC(=O)N1CCC(Nc2cc3c(Nc4ccc(Oc5ccnc(NC6COC6)c5)cc4F)ncnc3cc2OC)CC1"
Ans: ≥ 1000 nM

====

- System: HCC827-YVMA cells (human ERBB2 exon20 insertion mutant A775_G776ins YVMA)
- method-summary: Cell growth inhibition (CellTiter-Glo, 3 days) in HCC827-YVMA
- Type: cell-based
- particulars: 72 h, 3 days after administration
result-type: GI50

Example results:
| compound | result-type | val |
| --- | --- | --- |
| C=CC(=O)N1CCC(Nc2cc3c(Nc4ccc(Oc5ccnc(N6CCCC6)c5)cc4F)ncnc3cc2OC)CC1 | GI50 | 100 to 300 nM |
| COc1cc2ncnc(Nc3ccc(Oc4ccn(-c5cnc(C)c(F)c5)n4)cc3F)c2cc1NC1CCN(C(=O)/C=C/CN(C)C)CC1 | GI50 | 300 to 600 nM |
| C=CC(=O)N1CCC(Oc2cc3c(Nc4ccc(Oc5ccnc(N6C[C@@H](C)N(C)[C@@H](C)C6)c5)cc4F)ncnc3cc2OC)CC1 | GI50 | 100 to 300 nM |

// next entry
Q: Output measured GI50 for this item: C=CC(=O)N1CCC(Nc2cc3c(Nc4ccc(Oc5ccnc(N6CCC(C)(F)C6)c5)cc4F)ncnc3cc2OC)CC1 (stereo not shown)
Ans: < 30 nM
